# key: entry, value: PIF 2
Tested on: BALB/c 3T3 (CCL-163) cells
READOUT LABEL: PIF 2

> print(dat)
                                    compound  readout.label  recorded.result
 1  NC(=O)C1=C(O)CC2CC3Cc4ccc([N+](=O)[O-])c(O)c4C(=O)C3=C(O)C2(O)C1=O (stereo not drawn)          PIF 2            13.82
 2  CN(C)c1ccc(O)c2c1CC1CC3CC(O)=C(C(N)=O)C(=O)C3(O)C(O)=C1C2=O (stereo not drawn)          PIF 2             2.04
 3  CC1c2cccc(O)c2C(=O)C2=C(O)C3(O)C(=O)C(C(N)=O)=C(O)CC3C(O)C21 (stereo not drawn)          PIF 2            82.61
 4  CN(C)c1cc([N+](=O)[O-])c(O)c2c1CC1CC3CC(O)=C(C(N)=O)C(=O)C3(O)C(O)=C1C2=O (stereo not drawn)          PIF 2             1.35
 5  O=C(NCN1CCCCC1)C1=C(O)CC2CC3Cc4cccc(O)c4C(=O)C3=C(O)C2(O)C1=O (stereo not drawn)          PIF 2            58.22
 6  NC(=O)C1=C(O)C[C@@H]2C[C@@H]3Cc4cccc(O)c4C(=O)C3=C(O)[C@]2(O)C1=O          PIF 2            84.72
 7  O=C(NCN1CCNCC1)C1=C(O)CC2CC3Cc4cccc(O)c4C(=O)C3=C(O)C2(O)C1=O (stereo not drawn)          PIF 2            35.30
 8  NC(=O)C1=C(O)CC2CC3Cc4c([N+](=O)[O-])ccc(O)c4C(=O)C3=C(O)C2(O)C1=O (stereo not drawn)          PIF 2            23.32
 9  CN(C)c1ccc2c(c1O)C(=O)C1=C(O)C3(O)C(=O)C(C(N)=O)=C(O)CC3CC1C2 (stereo not drawn)          PIF 2             1.56
10  CN(C)CC(=O)Nc1ccc2c(c1O)C(=O)C1=C(O)C3(O)C(=O)C(C(N)=O)=C(O)CC3CC1C2 (stereo not drawn)          PIF 2            12.87
11  O=C(NCN1CCCC1)C1=C(O)CC2CC3Cc4cccc(O)c4C(=O)C3=C(O)C2(O)C1=O (stereo not drawn)          PIF 2            75.11
12  O=C(NCN1CCOCC1)C1=C(O)CC2CC3Cc4cccc(O)c4C(=O)C3=C(O)C2(O)C1=O (stereo not drawn)          PIF 2            89.48
